Each entry below carries its reported GI50.
- Tested on: BXPC-3
- METHOD NOTES: Cytotoxicity against human BxPC3 cells after 48 hrs by SRB assay
- Assay type: functional
- CONDITION: BXPC-3, 48 h
VALUE KIND: GI50 (µg/mL)

MOLECULE: COc1cc([C@H]2Oc3cc(-c4cc(=O)c5c(O)cc(O)cc5o4)cc(OC)c3O[C@@H]2CO)ccc1O
SIGN QUALIFIER: =
RESULT NUMBER: 1.8

MOLECULE: COc1cc([C@H]2Oc3cc(-c4cc(=O)c5c(O)cc(O)cc5o4)ccc3O[C@@H]2CO)ccc1O [HYDNOCARPIN]
SIGN QUALIFIER: =
RESULT NUMBER: 1.5

MOLECULE: COc1cc([C@H]2Oc3cc(-c4cc(=O)c5c(O)cc(O)cc5o4)cc(OC)c3O[C@@H]2CO)cc(OC)c1O [PALSTATIN]
SIGN QUALIFIER: =
RESULT NUMBER: 3.2

MOLECULE: COc1cc(-c2cc(=O)c3c(O)cc(O)cc3o2)cc(OC)c1O [TRICIN]
SIGN QUALIFIER: =
RESULT NUMBER: 7.5

MOLECULE: O=c1cc(-c2ccc(O)c(O)c2)oc2cc(O)cc(O)c12 [LUTEOLIN]
SIGN QUALIFIER: >
RESULT NUMBER: 10

MOLECULE: COc1cc(-c2cc(=O)c3c(O)cc(O)cc3o2)ccc1O [CHRYSOERIOL]
SIGN QUALIFIER: =
RESULT NUMBER: 2.6

====

- Test system: SF-268
- METHOD NOTES: Cytotoxicity against human SF268 cells after 48 hrs by SRB assay
- Assay type: functional
- CONDITION: SF-268, 48 h

COMPOUND: O=c1cc(-c2ccc(O)c(O)c2)oc2cc(O)cc(O)c12 [LUTEOLIN]
SIGN QUALIFIER: =
GI50 (µg/mL): 9

COMPOUND: COc1cc([C@H]2Oc3cc(-c4cc(=O)c5c(O)cc(O)cc5o4)ccc3O[C@@H]2CO)ccc1O [HYDNOCARPIN]
SIGN QUALIFIER: =
GI50 (µg/mL): 2.6

COMPOUND: COc1cc(-c2cc(=O)c3c(O)cc(O)cc3o2)ccc1O [CHRYSOERIOL]
SIGN QUALIFIER: =
GI50 (µg/mL): 1.7

COMPOUND: COc1cc(-c2cc(=O)c3c(O)cc(O)cc3o2)cc(OC)c1O [TRICIN]
SIGN QUALIFIER: =
GI50 (µg/mL): 3

COMPOUND: COc1cc([C@H]2Oc3cc(-c4cc(=O)c5c(O)cc(O)cc5o4)cc(OC)c3O[C@@H]2CO)cc(OC)c1O [PALSTATIN]
SIGN QUALIFIER: >
GI50 (µg/mL): 10

COMPOUND: COc1cc([C@H]2Oc3cc(-c4cc(=O)c5c(O)cc(O)cc5o4)cc(OC)c3O[C@@H]2CO)ccc1O
SIGN QUALIFIER: =
GI50 (µg/mL): 2.2
